- System: CCRIS mutagenicity, Ames/micronucleus/aberration tests
- Assay Notes: CCRIS mutagenicity studies
- Condition Parameters: Test System: AMES SALMONELLA TYPHIMURIUM; Strain/Indicator: TA100; Metabolic Activation: NONE; Method: PREINCUBATION
The source made the active and inactive calls. No rule for the calls is given here.
Classes used: active, inactive

{"Compound": "C=C(C)[C@@]12OC3(c4ccccc4)O[C@@H]1[C@@H]1[C@@H]4OC4(CO)[C@@H](O)[C@]4(O)C(=O)C(C)=C[C@H]4[C@@]1(O3)[C@H](C)[C@H]2OC(=O)/C=C/C=C/c1ccccc1 (stereo not given in full)", "Tested On": "CCRIS mutagenicity, Ames/micronucleus/aberration tests", "Category Label": "inactive"}
{"Compound": "Nc1ccccc1C(=O)O", "Tested On": "CCRIS mutagenicity, Ames/micronucleus/aberration tests", "Category Label": "inactive"}
{"Compound": "CCCC(=O)c1cc(O)c(O)cc1O", "Tested On": "CCRIS mutagenicity, Ames/micronucleus/aberration tests", "Category Label": "inactive"}
{"Compound": "Nc1ccc(Oc2ccc(Oc3ccc(N)cc3)cc2)cc1", "Tested On": "CCRIS mutagenicity, Ames/micronucleus/aberration tests", "Category Label": "inactive"}
{"Compound": "COP(=O)(OC)OC=C(Cl)Cl", "Tested On": "CCRIS mutagenicity, Ames/micronucleus/aberration tests", "Category Label": "active"}
{"Compound": "CN(C(=O)CN(CCO)CC(=O)N(C)C(C)(C)Cc1ccccc1)C(C)(C)Cc1ccccc1", "Tested On": "CCRIS mutagenicity, Ames/micronucleus/aberration tests", "Category Label": "inactive"}
{"Compound": "Nc1ncnc2nc(-c3ccc([N+](=O)[O-])cc3)[nH]c12", "Tested On": "CCRIS mutagenicity, Ames/micronucleus/aberration tests", "Category Label": "active"}
{"Compound": "c1ccc2c(c1)-c1ccc3ccccc3c1C1OC21 (stereo not given)", "Tested On": "CCRIS mutagenicity, Ames/micronucleus/aberration tests", "Category Label": "active"}
{"Compound": "O=C(O)[C@H](O)[C@@H](O)C(=O)O", "Tested On": "CCRIS mutagenicity, Ames/micronucleus/aberration tests", "Category Label": "inactive"}
{"Compound": "CCCCCCCC/C=C\\CCCCCCCC(=O)O", "Tested On": "CCRIS mutagenicity, Ames/micronucleus/aberration tests", "Category Label": "inactive"}

Source: PubChem BioAssay AID1259407
